- test method notes: Dissolution, USP dissolution apparatus 2, 900 mL 0.0033 N hydrochloric acid, 0 rpm, 37° C.
- Assay type: physicochemical
- settings: pH modulating agent: Bicarbonate; 300 sec (Table 33)
Counter-ions that a name gives are not always drawn.
result type: % drug dissolved in 900 mL 0.0033 N HCl at 0 rpm (%)
Give the quantity in %, number only.

Could you tell me which % drug dissolved in 900 mL 0.0033 N HCl at 0 rpm is on file for Cc1nnc2n1-c1ccc(Cl)cc1C(c1ccccc1)=NC2 ?
1

Could you tell me which % drug dissolved in 900 mL 0.0033 N HCl at 0 rpm is on file for CN(C)C(=O)C(CCN1CCC(O)(c2ccc(Cl)cc2)CC1)(c1ccccc1)c1ccccc1 [Loperamide hydrochloride] ?
27

Could you tell me which % drug dissolved in 900 mL 0.0033 N HCl at 0 rpm is on file for CCN(CC)CCNC(=O)c1cc(Cl)c(N)cc1OC [Metoclopramide hydrochloride] ?
5

Could you tell me which % drug dissolved in 900 mL 0.0033 N HCl at 0 rpm is on file for O=C1Nc2ccc(Cl)cc2C(c2ccccc2Cl)=NC1O (stereo not shown) ?
6

---

- test method notes: Solubility in water
- settings: dose (mg) of each drug as in Table 78
Counter-ions that a name gives are not always drawn.
result type: Volume (mL) of water to dissolve dose
Field note: include the unit after the figure.

Could you tell me which Volume (mL) of water to dissolve dose is on file for CN(C)CCc1c[nH]c2ccc(C[C@H]3COC(=O)N3)cc12 [Zolmitriptan] ?
2 mL

Could you tell me which Volume (mL) of water to dissolve dose is on file for CCN(CC)CCNC(=O)c1cc(Cl)c(N)cc1OC [Metoclopramide hydrochloride] ?
50 mL

Could you tell me which Volume (mL) of water to dissolve dose is on file for CN(C)CCc1c[nH]c2ccc(Cn3cncn3)cc12 [Rizatriptan benzoate] ?
0.3 mL

Could you tell me which Volume (mL) of water to dissolve dose is on file for CN1CCC[C@@H]1Cc1c[nH]c2ccc(CCS(=O)(=O)c3ccccc3)cc12 [Eletriptan hydrochloride, Eletriptan hydrobromide] ?
4 mL

---

- test method notes: Effect of different alkaline agents on paracetamol absorption in vivo (5 subject crossover studies, plasma paracetamol)
- settings: human, oral, 1000 mg, two tablets each 500 mg paracetamol, fasted, Magnesium carbonate, dose 300 mg, read-out: Median AUC20 (converted)
result type: AUC (ng·h/mL)
Give the quantity in ng·h/mL, number only.

Could you tell me which AUC is on file for CC(=O)Nc1ccc(O)cc1 ?
2010

---

- test method notes: Dissolution, USP dissolution apparatus 2, 900 mL 0.0033 N hydrochloric acid, 30 rpm, 37° C.
- Assay type: physicochemical
- settings: basic and amphoteric drugs in formulations according to the invention (Table 32); 180 sec; 30 rpm
Where a name gives a salt, the structure may show the parent alone.
Exam item: assign Criterion met to entries whose % dissolved in 900 mL 0.0033 N HCl is below 90% and Criterion not met to entries at or above 90%. Note that a value of exactly 90% receives Criterion not met.

Lab note: % dissolved in 900 mL 0.0033 N HCl threshold 90%. Does this compound come in strictly under it? CN(C)CCc1c[nH]c2ccc(Cn3cncn3)cc12 [Rizatriptan benzoate]
Criterion not met

Lab note: % dissolved in 900 mL 0.0033 N HCl threshold 90%. Does this compound come in strictly under it? COc1cccc(C2(O)CCCCC2CN(C)C)c1 (stereo not shown) [Tramadol hydrochloride]
Criterion not met

Lab note: % dissolved in 900 mL 0.0033 N HCl threshold 90%. Does this compound come in strictly under it? CCN(CC)CCNC(=O)c1cc(Cl)c(N)cc1OC [Metoclopramide hydrochloride]
Criterion not met

Lab note: % dissolved in 900 mL 0.0033 N HCl threshold 90%. Does this compound come in strictly under it? CN1CCC[C@@H]1Cc1c[nH]c2ccc(CCS(=O)(=O)c3ccccc3)cc12 [Eletriptan hydrochloride, Eletriptan hydrobromide]
Criterion not met

Lab note: % dissolved in 900 mL 0.0033 N HCl threshold 90%. Does this compound come in strictly under it? CN(C)CCc1c[nH]c2ccc(C[C@H]3COC(=O)N3)cc12
Criterion met

Lab note: % dissolved in 900 mL 0.0033 N HCl threshold 90%. Does this compound come in strictly under it? O=C1Nc2ccc(Cl)cc2C(c2ccccc2Cl)=NC1O (stereo not shown)
Criterion met

Lab note: % dissolved in 900 mL 0.0033 N HCl threshold 90%. Does this compound come in strictly under it? Cc1nnc2n1-c1ccc(Cl)cc1C(c1ccccc1)=NC2
Criterion met

Lab note: % dissolved in 900 mL 0.0033 N HCl threshold 90%. Does this compound come in strictly under it? CN(C)C(=O)C(CCN1CCC(O)(c2ccc(Cl)cc2)CC1)(c1ccccc1)c1ccccc1 [Loperamide hydrochloride]
Criterion met

Lab note: % dissolved in 900 mL 0.0033 N HCl threshold 90%. Does this compound come in strictly under it? Cc1ccc(-c2nc3ccc(C)cn3c2CC(=O)N(C)C)cc1 [Zolpidem tartrate]
Criterion not met

---

- test method notes: Solubility in water
- settings: dose (mg) of each drug as in Table 78
Counter-ions that a name gives are not always drawn.
result type: Volume (mL) of water to dissolve dose
Give the quantity in mL, number only.

Could you tell me which Volume (mL) of water to dissolve dose is on file for Cc1nnc2n1-c1ccc(Cl)cc1C(c1ccccc1)=NC2 ?
14

Could you tell me which Volume (mL) of water to dissolve dose is on file for Cc1nccn1CC1CCc2c(c3ccccc3n2C)C1=O (stereo not drawn) [Ondansetron hydrochloride] ?
4

Could you tell me which Volume (mL) of water to dissolve dose is on file for Cc1ccc(-c2nc3ccc(C)cn3c2CC(=O)N(C)C)cc1 [Zolpidem tartrate] ?
0.4

---

- test method notes: Effect of different alkaline agents on paracetamol absorption in vivo (5 subject crossover studies, plasma paracetamol)
- settings: human, oral, 1000 mg, two tablets each 500 mg paracetamol, fasted, Magnesium carbonate, dose 150 mg, read-out: Median AUC20 (converted)
result type: AUC (ng·h/mL)
Give the quantity in ng·h/mL, number only.

Could you tell me which AUC is on file for CC(=O)Nc1ccc(O)cc1 [Paracetamol] ?
1140

---

Record form. Attribute: % dissolved in 900 mL 0.0033 N HCl. Fill in for each entry.
- test method notes: Dissolution, USP dissolution apparatus 2, 900 mL 0.0033 N hydrochloric acid, 0 rpm, 37° C.
- Type: physicochemical
- settings: basic and amphoteric drugs in formulations according to the invention (Table 32); 180 sec; 0 rpm
Where a name gives a salt, the structure may show the parent alone.
Give the quantity in %, number only.

Could you tell me which % dissolved in 900 mL 0.0033 N HCl is on file for CCN(CC)CCNC(=O)c1cc(Cl)c(N)cc1OC [Metoclopramide hydrochloride] ?
26

Could you tell me which % dissolved in 900 mL 0.0033 N HCl is on file for Cc1ccc(-c2nc3ccc(C)cn3c2CC(=O)N(C)C)cc1 [Zolpidem tartrate] ?
77

Could you tell me which % dissolved in 900 mL 0.0033 N HCl is on file for CN(C)C(=O)C(CCN1CCC(O)(c2ccc(Cl)cc2)CC1)(c1ccccc1)c1ccccc1 [Loperamide hydrochloride] ?
70

Could you tell me which % dissolved in 900 mL 0.0033 N HCl is on file for COc1cccc(C2(O)CCCCC2CN(C)C)c1 (stereo not shown) [Tramadol hydrochloride] ?
87

Could you tell me which % dissolved in 900 mL 0.0033 N HCl is on file for CN1CCC[C@@H]1Cc1c[nH]c2ccc(CCS(=O)(=O)c3ccccc3)cc12 [Eletriptan hydrochloride, Eletriptan hydrobromide] ?
88

Could you tell me which % dissolved in 900 mL 0.0033 N HCl is on file for Cc1nccn1CC1CCc2c(c3ccccc3n2C)C1=O (stereo not shown) [Ondansetron hydrochloride] ?
50

Could you tell me which % dissolved in 900 mL 0.0033 N HCl is on file for CN(C)CCc1c[nH]c2ccc(Cn3cncn3)cc12 [Rizatriptan benzoate] ?
94

Could you tell me which % dissolved in 900 mL 0.0033 N HCl is on file for Cc1nnc2n1-c1ccc(Cl)cc1C(c1ccccc1)=NC2 [Alprazolam] ?
13

Could you tell me which % dissolved in 900 mL 0.0033 N HCl is on file for O=C1Nc2ccc(Cl)cc2C(c2ccccc2Cl)=NC1O (stereo not shown) [Lorazepam] ?
77

Could you tell me which % dissolved in 900 mL 0.0033 N HCl is on file for CN(C)CCc1c[nH]c2ccc(C[C@H]3COC(=O)N3)cc12 [Zolmitriptan] ?
66

---

- test method notes: Effect of different alkaline agents on paracetamol absorption in vivo (5 subject crossover studies, plasma paracetamol)
- settings: human, oral, 1000 mg, two tablets each 500 mg paracetamol, fasted, alkaline agent None, dose 0 mg, read-out: Median AUC20 (converted)
result type: AUC (ng·h/mL)
Give the quantity in ng·h/mL, number only.

Could you tell me which AUC is on file for CC(=O)Nc1ccc(O)cc1 ?
1590
